Tested on: Rattus norvegicus
ASSAY_EXPLANATION: Bradycardic activity was evaluated in an anesthetized rat model as percent heart rate(beats/min) reduction 20 min after iv injection of 5 mg/kg
Type: functional
Below is a list of entries, each paired with its recorded Delta HR value.
I only need the number, in %, no unit after it.

Report Delta HR for COc1cc2c(cc1OC)CC(=O)N(CCCN(C)CCc1coc3cccc(OC)c13)CC2 please. -14

# lookup: Delta HR of COc1cc2c(cc1OC)CC(=O)N(CCCN(C)CCc1csc3ccc(Br)cc13)CC2 -17

Need Delta HR, item COc1cc2c(cc1OC)CC(=O)N(CCCN(C)CCc1csc3cc(OS(C)(=O)=O)ccc13)CC2 -40

Consider the molecule COc1cc2c(cc1OC)CC(=O)N(CCCN(C)CCn1cnc3ccccc31)CC2 and give its measured Delta HR. -15

Entry COc1cc2c(cc1OC)CC(=O)N(CCCN(C)CCc1csc3ccccc13)CC2 : reported Delta HR = ? -51

Reported Delta HR, molecule COc1cc2c(cc1OC)CC(=O)N(CCCN(C)CCc1cccn1C)CC2 : ____ -18

Please report the recorded Delta HR for COc1cc2c(cc1OC)CC(=O)N(CCCN(C)CCc1ccsc1)CC2 . -19

# query: Delta HR of entry COc1cc2c(cc1OC)CC(=O)N(CCCN(C)CCCCCCc1cccs1)CC2 -21

---
Could you share which Delta HR value was measured for COc1cc2c(cc1OC)CC(=O)N(CCCN(C)CCc1ccccn1)CC2 ? -16

For the molecule COc1ccc2[nH]cc(CCN(C)CCCN3CCc4cc(OC)c(OC)cc4CC3=O)c2c1 , what Delta HR is on record? -29

Given the entry COc1cc2c(cc1OC)CC(=O)N(CCCN(C)CCCc1ccco1)CC2 , report its measured Delta HR. -18

GET /values?readout=Delta HR&item= COc1cc2c(cc1OC)CC(=O)N(CCCN(C)CCc1cc(C)sc1C)CC2 -40

Please look up its Delta HR: COc1cc2c(cc1OC)CC(=O)N(CCCN(C)CCCc1csc3ccccc13)CC2 -45

Which Delta HR is reported for this molecule? COc1cc2c(cc1OC)CC(=O)N(CCCN(C)CCc1cn(C)cn1)CC2 -11

====

Entries and their Selectivity
Species on record: Rattus norvegicus
ASSAY_EXPLANATION: Ratio of heart rate reduction to mean arterial blood pressure reduction
Format: functional
I only need the number, thanks.

Reported Selectivity, compound COc1cc2c(cc1OC)CC(=O)N(CCCN(C)CCCCCCc1cccs1)CC2 : ____ 2

Suppose we examine the compound COc1cc2c(cc1OC)CC(=O)N(CCCN(C)CCc1coc3ccccc13)CC2 ; what Selectivity value has been reported? 1.4

What Selectivity value was documented for this compound, COc1cc2c(cc1OC)CC(=O)N(CCCN(C)CCc1cc(C)sc1C)CC2 ? 1.7

// lookup Selectivity for COc1cc2c(cc1OC)CC(=O)N(CCCN(C)CCCc1cccs1)CC2 2

Data request, read-out Selectivity, for COc1cc2c(cc1OC)CC(=O)N(CCCN(C)Cc1csc3ccccc13)CC2 0.66

Continuing:
I'd like to know its Selectivity. The compound in question is COc1cc2c(cc1OC)CC(=O)N(CCCN(C)CCc1c[nH]c3ccccc13)CC2 2.2

Looking for the measured Selectivity of COc1cc2c(cc1OC)CC(=O)N(CCCN(C)CCc1cn(C)cn1)CC2 , can you help? 1

Please give the measured Selectivity for this compound: COc1cc2c(cc1OC)CC(=O)N(CCCN(C)CCCCc1cccs1)CC2 2.3

Using the record for COc1cc2c(cc1OC)CC(=O)N(CCCN(C)CCc1csc3ccc(C)cc13)CC2 , report its Selectivity. 1.4

====

Species on record: Rattus norvegicus
ASSAY_EXPLANATION: Delta HR ratio measured as the ratio of delta HR(20 min)/delta HR (5 min)
Type: functional
Decide using Ratio: a value greater than or equal to 0.8 is criterion met, a smaller one is criterion not met.

Check this molecule for Ratio at or above 0.8: COc1cc2c(cc1OC)CC(=O)N(CCCN(C)CCc1csc3cccc(OC)c13)CC2 criterion not met

Could you tell me if the measured Ratio of COc1cc2c(cc1OC)CC(=O)N(CCCN(C)CCc1c[nH]c3ccccc13)CC2 reaches 0.8 or more? criterion not met

Further cases:
Dear colleague, could you confirm whether COc1cc2c(cc1OC)CC(=O)N(CCCN(C)CCc1cc3ccccc3o1)CC2 has Ratio at or above 0.8? criterion not met

Textbook exercise: given the entry COc1cc2c(cc1OC)CC(=O)N(CCCN(C)CCCCCCc1cccs1)CC2 , state whether its Ratio is greater than or equal to 0.8. criterion not met

Hi, just wondering whether COc1cc2c(cc1OC)CC(=O)N(CCCN(C)CCCc1cccs1)CC2 shows Ratio of 0.8 or higher. criterion not met

For this molecule, is measured Ratio 0.8 or higher? COc1cc2c(cc1OC)CC(=O)N(CCCN(C)CCCc1ccco1)CC2 criterion met

Quick check, Ratio >= 0.8? COc1cc2c(cc1OC)CC(=O)N(CCCN(C)CCc1coc3cccc(OC)c13)CC2 criterion not met

Identify whether the reported Ratio of the following molecule is 0.8 or greater: COc1cc2c(cc1OC)CC(=O)N(CCCN(C)CCc1ccncc1)CC2 criterion met

Evaluate COc1ccc2[nH]cc(CCN(C)CCCN3CCc4cc(OC)c(OC)cc4CC3=O)c2c1 : Ratio at minimum 0.8? criterion met

====

Species: Rattus norvegicus
ASSAY_EXPLANATION: Delta HR ratio measured as the ratio of delta HR(20 min)/delta HR (5 min)
Type: functional
METRIC: Ratio
Reply with the value as a number alone.

Example results:
Recorded Ratio for COc1cc2c(cc1OC)CC(=O)N(CCCN(C)Cc1csc3ccccc13)CC2 , please? 0.4

Need Ratio of COc1ccc(CCN(C)CCCN2CCc3cc(OC)c(OC)cc3CC2=O)cc1OC [ZATEBRADINE] , thanks. 0.83

***
Record request: Ratio value, item COc1cc2c(cc1OC)CC(=O)N(CCCN(C)CCc1csc3ccc(C)cc13)CC2 0.75

What measured Ratio goes with COc1cc2c(cc1OC)CC(=O)N(CCCN(C)CCCc1csc3ccccc13)CC2 ? 0.69

State the recorded Ratio for this entry: COc1cc2c(cc1OC)CC(=O)N(CCCN(C)CCc1csc3ccc(Br)cc13)CC2 0.34

I would be grateful if you could share the reported Ratio for COc1cc2c(cc1OC)CC(=O)N(CCCN(C)CCc1cccnc1)CC2 . 1.5

Return reported Ratio; argument: COc1cc2c(cc1OC)CC(=O)N(CCCN(C)Cc1c(C)noc1C)CC2 2.8

Item COc1cc2c(cc1OC)CC(=O)N(CCCN(C)CCc1c[nH]c3ccc(O)cc13)CC2 has what recorded Ratio? 0.49

# get_value(readout='Ratio', item= COc1ccc2c(CCN(C)CCCN3CCc4cc(OC)c(OC)cc4CC3=O)coc2c1 ) 0.58

For the compound shown here, COc1cc2c(cc1OC)CC(=O)N(CCCN(C)CCc1c[nH]c3ccc(Br)cc13)CC2 , give the reported Ratio. 0.82

====

Each record here notes measured Delta HR.
Test system: Rattus norvegicus
ASSAY_EXPLANATION: Bradycardic activity was evaluated in an anesthetized rat model as percent heart rate(beats/min) reduction 20 min after iv injection of 5 mg/kg
Format: functional
Give the value in % but do not write % after it.

Form field: reported Delta HR of COc1cc2c(cc1OC)CC(=O)N(CCCN(C)CCc1c[nH]c3ccc(Br)cc13)CC2 -27

Further cases:
Given the entry COc1cc2c(cc1OC)CC(=O)N(CCCN(C)CCc1csc3c1CCCC3)CC2 , report its measured Delta HR. -55

Reported Delta HR, compound COc1cc2c(cc1OC)CC(=O)N(CCCN(C)CCc1csc3cc(OC)c(OC)cc13)CC2 : ____ -17

Requested read-out: Delta HR. Entry: COc1cc2c(cc1OC)CC(=O)N(CCCN(C)CCc1cn(C)c3ccccc13)CC2 -37

Query: Delta HR; subject: COc1cc2c(cc1OC)CC(=O)N(CCCN(C)CCCc1cccs1)CC2 -19

Need Delta HR, item COc1cc2c(cc1OC)CC(=O)N(CCCN(C)CCc1cccs1)CC2 -16

Reported Delta HR for COc1ccc2c(CCN(C)CCCN3CCc4cc(OC)c(OC)cc4CC3=O)coc2c1 : what is it? -34

====

Species: Rattus norvegicus
ASSAY_EXPLANATION: Delta HR ratio measured as the ratio of delta HR(20 min)/delta HR (5 min)
Format: functional
METRIC: Ratio

Example compounds with recorded Ratio:
Using the record for COc1cc2c(cc1OC)CC(=O)N(CCCN(C)CCn1cnc3ccccc31)CC2 , report its Ratio. 1.5

Given the entry COc1cc2c(cc1OC)CC(=O)N(CCCN(C)CCc1cccn1C)CC2 , report its measured Ratio. 0.59

Request the reported Ratio associated with COc1cc2c(cc1OC)CC(=O)N(CCCN(C)CCc1c[nH]c3ccc(OCc4ccccc4)cc13)CC2 0.93

Can you look up the measured Ratio of COc1cc2c(cc1OC)CC(=O)N(CCCN(C)CCCCc1cccs1)CC2 for me? 0.39

Find the recorded Ratio belonging to COc1cc2c(cc1OC)CC(=O)N(CCCN(C)CCc1ccco1)CC2 and report it. 0.92

---
Entry COc1cc2c(cc1OC)CC(=O)N(CCCN(C)CCCc1c[nH]c3ccccc13)CC2 has what Ratio? 0.76

Given the entry COc1cc2c(cc1OC)CC(=O)N(CCCN(C)CCc1ccsc1)CC2 , report its measured Ratio. 0.79

Any idea what Ratio was measured for COc1cc2c(cc1OC)CC(=O)N(CCCN(C)CCc1csc3cc(O)ccc13)CC2 ? 0.74
